- target or system: Nuclear receptor subfamily 1 group I member 2 (Homo sapiens)
- assay notes: Human pregnane X receptor (PXR) activation by small molecules, qHTS assay (AID 1346985); also: nearly all actives have a fitted effect of over 40% in size; as to activation: % is scaled to controls: 0 for no effect and ±100 for the full control effect
- measurement conditions: DPX-2 HepG2 CYP3A4-luciferase, 24 h; series mostly up to 38.3 µM
Inconclusive results are not listed. Active and inactive are the calls of the source. Calls follow the shape of the dose curve; as a rule, active = well fitted activation curve with a large enough effect in the repeat runs; inconclusive = weak or mixed curves; inactive = flat fitted curve, though single readings scatter.
One label from this list, please: t (active), f (inactive)

A selection of reference data follows.
• Nc1nc(NC2CC2)c2ncn([C@@H]3C=C[C@@H](CO)C3)c2n1 = t
• CC1CCCC(C)N1NC(=O)c1ccc(Cl)c(S(N)(=O)=O)c1 (stereo not given) = f
• CC(C)NCC1CCc2cc(CO)c([N+](=O)[O-])cc2N1 (stereo not given) = f
• O=C(O)[C@H]1CN(C/C=C/P(=O)(O)O)CCN1 = f
• NC[C@H]1O[C@H](O[C@H]2[C@H](O)[C@@H](O[C@H]3O[C@H](CO)[C@@H](O)[C@H](N)[C@H]3O)[C@H](N)C[C@@H]2N)[C@H](N)C[C@@H]1O = f

Query: Dear all, I need the recorded test outcome for CO/N=C(\C(=O)N[C@@H]1C(=O)N2C(C(=O)[O-])=C(C[n+]3cccc4c3CCC4)CS[C@H]12)c1csc(N)n1 , thank you.
Reply: f

Query: Just curious, what result did O=C(O)c1ccc(NC2OC[C@@H](O)[C@H](O)[C@H]2O)cc1 (stereo not given in full) get here?
Reply: f

Query: recorded result category for CCCCCCCCCCCCCCCCC(C(=O)O)C(O)(CC(=O)O)C(=O)O (stereo not given) in this test
Reply: f

Query: Which outcome was entered for the compound Nc1cc(Cl)c(NC2=NCCN2)c(Cl)c1 in this test?
Reply: f

Query: Hello, I am checking results. What call was entered for OCC1(CO)COC(C(Cl)(Cl)Cl)OC1 ?
Reply: f

---

- assay notes: qHTS assay for identifying genotoxic compounds that show differential cytotoxicity against isogenic chicken DT40 cell lines with known DNA damage response pathways - Rev3 mutant cell line (AID 743014); also: nearly all actives have a fitted effect of over 55% in size; also: potency is read from the fitted curve at half-maximal effect
- measurement conditions: chicken DT40 Rev3-/- viability, CellTiter-Glo, 40 h; series mostly up to 68.4 µM
Results filed as inconclusive are left out. The source made the active and inactive calls. Calls come from the whole dose curve; as a rule, active = well fitted cell-killing curve with a large enough effect in the repeat runs; inconclusive = weak or mixed curves, or effect the other way; inactive = no such curve, though single readings can be large or run the other way.
experimental endpoint: Potency

Sample records with Potency:
- CC[N+](CC)(CC)CCC(O)(c1ccccc1)C1CCCCC1 (configuration not stated): inactive
- Cc1cc(N)c2ccccc2[n+]1CCCCCCCCCC[n+]1c(C)cc(N)c2ccccc21: 2.54 µM (active)
- CCCCCCCCCCCCCC(=O)OCC(COP(=O)([O-])OCC[N+](C)(C)C)OC(=O)CCCCCCCCCCCCC (configuration not stated): inactive
- O=C(CCN1CCC(c2ccccc2)C1)c1ccc2c(c1)OCCO2 (configuration not stated): 4.73 µM (active)
- O=C1OC(O)C(C(Cl)Cl)=C1Cl (configuration not stated): 1.26 µM (active)

Query: Any idea what its Potency is? The compound is CC(Cc1ccc(O)c(O)c1)C(C)Cc1ccc(O)c(O)c1 (configuration not stated)
Reply: 30.6 µM (active)

Query: For N=C(N)n1cccn1 , what is its reported Potency?
Reply: inactive

Query: What value of measured Potency is listed for CN(C)CCc1c[nH]c2ccc(Cn3cncn3)cc12 ?
Reply: inactive

Query: Requested field: Potency. Item: O=C(O)COc1ccc(C(=O)c2cccs2)c(Cl)c1Cl
Reply: inactive

Query: Report Potency for O=C1C2CC3CC1CC(O)(C3)C2 please.
Reply: inactive

Query: Bench note: what Potency did O=C(O)c1cc(=O)c2c3nc4ccccc4oc-3cc(=O)c2[nH]1 show?
Reply: inactive

Query: Suppose we examine the compound CSCCC(N)C(=O)O (configuration not stated) ; what Potency value has been reported?
Reply: inactive

---

- assay notes: qHTS RealTime-Glo MT Cell Viability Assay in HepG2 cells - 8 hour (AID 1224873); also: % is scaled to controls: 0 for no effect and ±100 for the full control effect; nearly all actives have a fitted effect of over 55% in size
- measurement conditions: RealTime-Glo luminescence; series mostly up to 76.8 µM
Results filed as inconclusive are left out. Calls of active or inactive are those of the source. Calls come from the whole dose curve; as a rule, active = well fitted cell-killing curve with a large enough effect in the repeat runs; inconclusive = weak or mixed curves; inactive = flat fitted curve, though single readings scatter.
experimental endpoint: viability change, negative = cytotoxic

Recorded results for 4 compounds are shown here.
• COc1cc(C(C)C)ccc1C = -7.86% [at 15.8 µM] (inactive)
• C=CC(=O)OCCOC1C2CCC1C1CC=CC12 (stereo unspecified) = 0.124% [at 15.8 µM] (inactive)
• CCCCCCCCCCCCS(=O)(=O)Cl = -5.43% [at 15.8 µM] (inactive)
• CCCCNc1ccc(NCCCC)c2c1C(=O)c1ccccc1C2=O = 0.0909% [at 15.8 µM] (inactive)

Query: Need viability change, negative = cytotoxic of COc1cc2ncnc(Nc3cccc(Cl)c3)c2cc1OC , thanks.
Reply: -19.1% [at 15.8 µM] (inactive)

Query: viability change, negative = cytotoxic for C=C[Si](C)(C)Cl ?
Reply: -15.7% [at 6.97 µM] (inactive)

---

- assay notes: qHTS assay to identify small molecule agonists of the estrogen receptor beta (ER-beta) signaling pathway - cell viability counter screen (AID 1259380); also: nearly all actives have a fitted effect of over 30% in size
- measurement conditions: ER-beta-bla HEK293T viability, CellTiter-Glo luminescence, 16 h; series mostly up to 92.4 µM
- Text: National Center for Advancing Translational Sciences [NCATS] NIH Chemical Genomics Center [NCGC] U.S. Environmental Protection Agency [EPA] National Institutes of Environmental Health Sciences [NIEHS] National Toxicology Program [NTP] U.S. Food and Drug Administration [FDA] Estrogen receptor (ER), a nuclear hormone receptor, plays an important role in development, metabolic homeostasis and reproduction. […]
Results filed as inconclusive are left out. The source made the active and inactive calls. Calls come from the whole dose curve; as a rule, active = well fitted cell-killing curve with a large enough effect in the repeat runs; inconclusive = weak or mixed curves, or effect the other way; inactive = flat fitted curve, though single readings scatter.
Could you please pick one outcome from this set? yes for active, no for inactive

For orientation, consider the following solved cases.
- CC(C)(C)c1cc(CCC(=O)OCCSCCOC(=O)CCc2cc(C(C)(C)C)c(O)c(C(C)(C)C)c2)cc(C(C)(C)C)c1O: no
- CCc1cccc(CC)c1: no
- CCCC(C)C=O (configuration not stated): no
- CCCCCCCCCCCCS(=O)(=O)Cl: yes
- CCC1(C)C(=O)N(Cl)C(=O)N1Cl (configuration not stated): no
- COc1cc(/C=C/C(=O)CC(=O)/C=C/c2ccc(O)c(OC)c2)ccc1O: yes
- C=Cc1ccncc1: no
- CCSCC: no

Query: I'd appreciate the recorded outcome for Cn1ccnc1 from this test.
Reply: no

Query: Per the assay record, what outcome was assigned to O=C1c2ccccc2C(=O)c2c(Cl)cccc21 ?
Reply: yes

Query: Give the logged outcome of this assay for the following compound: O=[N+]([O-])c1ccc(O)c2ncccc12
Reply: yes

Query: For CCc1cccc(C)c1N(C(=O)CS(=O)(=O)O)C(C)COC (configuration not stated) , what call appears in the results of this test?
Reply: no

Query: State the result this test recorded for C=C1C(CCl)(CCl)C2(Cl)C(Cl)C(Cl)C1(Cl)C2(Cl)Cl (configuration not stated) .
Reply: yes

Query: Please let me know the test result on file for CCOc1nc(F)cc2nc(S(=O)(=O)Nc3c(Cl)cccc3C(=O)OC)nn12 .
Reply: no

---

- target or system: Luciferin 4-monooxygenase (Photinus pyralis) (UniProt P08659)
- Sequence (P08659 whole entry, looked up): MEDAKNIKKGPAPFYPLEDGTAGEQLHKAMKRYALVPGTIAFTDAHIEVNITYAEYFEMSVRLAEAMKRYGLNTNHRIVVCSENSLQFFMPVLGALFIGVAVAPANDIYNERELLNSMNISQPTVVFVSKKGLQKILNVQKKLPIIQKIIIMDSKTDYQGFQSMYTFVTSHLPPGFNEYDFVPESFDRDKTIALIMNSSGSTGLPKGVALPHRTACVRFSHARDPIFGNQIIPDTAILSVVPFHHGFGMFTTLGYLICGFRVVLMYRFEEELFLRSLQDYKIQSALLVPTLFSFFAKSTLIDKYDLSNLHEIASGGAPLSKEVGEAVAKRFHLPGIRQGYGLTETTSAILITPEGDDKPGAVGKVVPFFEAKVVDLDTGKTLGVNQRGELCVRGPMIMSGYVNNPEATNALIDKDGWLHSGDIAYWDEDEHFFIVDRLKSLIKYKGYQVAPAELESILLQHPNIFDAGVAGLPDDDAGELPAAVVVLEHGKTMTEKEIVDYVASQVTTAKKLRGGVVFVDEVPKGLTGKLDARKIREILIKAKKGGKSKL
- assay notes: qHTS assay to identify small molecule inhibitors of firefly luciferase (AID 1224835); also: % is scaled to controls: 0 for no effect and ±100 for the full control effect; nearly all actives have a fitted effect of over 25% in size
- measurement conditions: purified P. pyralis luciferase, luminescence inhibition; series mostly up to 115 µM
Records with an inconclusive call do not appear. Active and inactive are the calls of the source. Calls follow the shape of the dose curve; as a rule, active = well fitted inhibition curve with a large enough effect in the repeat runs; inconclusive = weak or mixed curves; inactive = flat fitted curve, though single readings scatter.
Entry note: the call must match one of yes (1) for active, no (0) for inactive

See these solved cases before continuing.
- c1ccc(C[P+](c2ccccc2)(c2ccccc2)c2ccccc2)cc1: no (0)
- CCC(O)CO (stereo not drawn): no (0)
- O=C1CCCCCCCCCCCCCC1: no (0)

# next molecule below
Query: # fetch the recorded call for C=C(C)C1CCC(C)CC1O (stereo not drawn) here
Reply: no (0)

---

- assay notes: A CellTox Green Cytotoxicity Assay to monitor cytotoxicity in HepG2 cells - 24 hour (AID 1224878); also: nearly all actives have a fitted effect of over 45% in size; as to Cytotoxicity: % is scaled to controls: 0 for no effect and ±100 for the full control effect
- measurement conditions: CellTox Green fluorescence; series mostly up to 76.8 µM
Inconclusive results are not listed. Active and inactive are the calls of the source. Calls come from the whole dose curve; as a rule, active = well fitted activation curve with a large enough effect in the repeat runs; inconclusive = weak or mixed curves; inactive = flat fitted curve, though single readings scatter.
Assign a class; possible classes are active, inactive

Illustrative cases are given below, each with its answer.
- Brc1cc(Br)cc(Br)c1: inactive
- COc1cc([C@@H]2c3cc4c(cc3[C@@H](O[C@@H]3O[C@@H]5CO[C@@H](C)O[C@H]5[C@H](O)[C@H]3O)[C@H]3COC(=O)[C@H]23)OCO4)cc(OC)c1O: active
- Clc1ccc2c(Cl)ccnc2c1: inactive
- CC(=O)CC(N)=O: inactive

Query: Test call, this compound: C/C=C/C(=O)C1=C(C)C=CCC1(C)C
Reply: inactive

Query: What was the test verdict on Clc1cccc(Cl)n1 ?
Reply: inactive

---

- assay notes: qHTS assay for small molecule disruptors of the mitochondrial membrane potential (AID 720635)
- measurement conditions: HepG2 mitochondrial membrane potential, Mito-MPS dye ratio; series mostly up to 83.2 µM
Results filed as inconclusive are left out. Calls of active or inactive are those of the source. Calls come from the whole dose curve; as a rule, active = well fitted inhibition curve with a large enough effect in the signal ratio in the repeat runs; inconclusive = weak or mixed curves, or effect the other way; inactive = flat fitted curve, though single readings scatter; the % refers to the signal ratio.
Respond only with the outcome that fits, drawn from active, inactive

For orientation, consider the following solved cases.
• C[C@H]1O[C@@H](O[C@H]2CC[C@@]3(C)[C@H](CC[C@@H]4[C@@H]3C[C@@H](O)[C@]3(C)[C@@H](C5=CC(=O)OC5)CC[C@]43O)C2)C[C@H](O)[C@@H]1O[C@H]1C[C@H](O)[C@H](O[C@H]2C[C@H](O)[C@H](O[C@@H]3O[C@H](CO)[C@@H](O)[C@H](O)[C@H]3O)[C@@H](C)O2)[C@@H](C)O1 = active
• N[C@H](C(=O)O)[C@@H]1CC(Cl)=NO1 = inactive
• NCCCC(=O)O = inactive
• c1ccc(-n2cnnn2)cc1 = inactive

Query: Check the results log: what was the call for CSCC[C@H](NC(=O)[C@H](Cc1ccc(OS(=O)(=O)O)cc1)NC(=O)[C@@H](N)CC(=O)O)C(=O)NCC(=O)N[C@@H](Cc1c[nH]c2ccccc12)C(=O)N[C@@H](CCSC)C(=O)N[C@@H](CC(=O)O)C(=O)N[C@@H](Cc1ccccc1)C(N)=O ?
Reply: inactive

Query: Which outcome was assigned to Cc1onc(-c2c(F)cccc2Cl)c1C(=O)N[C@@H]1C(=O)N2[C@@H]1SC(C)(C)[C@@H]2C(=O)O in this test?
Reply: inactive

Query: Hi, sorry to bother you, what did the test record for FC(F)(F)COCC(F)(F)F ?
Reply: inactive

Query: Record request — test call for O=C(O)CCCC/C=C(\c1ccccc1)c1cccnc1
Reply: inactive

Query: Can you look up the reported call for C[S+](C)CCC(N)C(=O)O (configuration not stated) for me?
Reply: inactive

Query: Record lookup: outcome of this test for NC(=O)c1cc[n+](CC2=C(C(=O)O)N3C(=O)[C@@H](NC(=O)C(c4ccccc4)S(=O)(=O)[O-])[C@H]3SC2)cc1 (some centres not stated) ?
Reply: inactive

Query: Hi, do you know how C/C(=C(/CCO)SSCC1CCCO1)N(C=O)Cc1cnc(C)nc1N (configuration not stated) came out in this test?
Reply: inactive

Query: // return assay outcome for CCCCCCCCOC(=O)c1cc(O)c(O)c(O)c1
Reply: active
